target: Mannose-6-phosphate isomerase (Homo sapiens); assay: MPI inhibition at elevated mannose 6-phosphate – biochemical, fluorescence intensity, high mannose 6-phosphate, primary screen (AID 1220); settings: recombinant PMI enzyme, coupled fluorescence intensity; at 20 µM
Hit rate of the full screen: of about 190,000 compounds, about 1,300 (0.68%) were called active. Cut-off read from the data, not from the text of the source: active = inhibition above about 50%; inactive = the rest. Only a selection was taken, and actives are over-represented in it overall.
Outcome codes: t = active, f = inactive

COMPOUND: CCOC(=O)N1CCC(NC(=O)c2ccc3c(c2)N(Cc2ccccc2)CCS3)CC1
QUALITATIVE LABEL: f
//
COMPOUND: Cc1ccc(Cl)cc1N1CCN(C(=O)CCC(=O)O)CC1
QUALITATIVE LABEL: f
//
COMPOUND: CN1C(=O)c2cccc3c(Cl)ccc(c23)C1=O
QUALITATIVE LABEL: f
//
COMPOUND: O=C(CC1Nc2ccccc2NC1=O)NCCCN1CCCCCC1 (stereo not given)
QUALITATIVE LABEL: f
//
COMPOUND: COc1ccc(CNC(=O)C(OC(=O)c2nsc(Cl)c2Cl)C(C)C)cc1 (stereo not given)
QUALITATIVE LABEL: f
//
COMPOUND: CNc1nc(C)c(C(=O)OCC(=O)OC)s1
QUALITATIVE LABEL: f
//
COMPOUND: COc1ccc2nc(SCC(C)=O)c(C#N)cc2c1
QUALITATIVE LABEL: f
//
COMPOUND: COc1ccccc1OCC(=O)Sc1ccc(C)cc1
QUALITATIVE LABEL: f
//
COMPOUND: COc1cc(C)nc(N2CCC(C(=O)NC3CCCCC3)CC2)n1
QUALITATIVE LABEL: f
//
COMPOUND: Cc1cc(N2CCN(C)CC2)nc2ccc(NC(=S)N3CCCCCC3)cc12
QUALITATIVE LABEL: f
//
COMPOUND: O=C(Cn1nc(C(F)(F)F)c2c1CCC2)N1CCN(c2ccccc2)CC1
QUALITATIVE LABEL: f
//
COMPOUND: O=c1c(Cc2ccc(Cl)cc2Cl)c(O)ccn1CCCN1CCOCC1
QUALITATIVE LABEL: f
//
COMPOUND: O=C(Oc1c(CN2CCOCC2)cc(Cl)c2cccnc12)c1ccccc1
QUALITATIVE LABEL: t
//
COMPOUND: Cc1ccc(NC(=O)c2ccc(Nc3c([N+](=O)[O-])cc([N+](=O)[O-])cc3[N+](=O)[O-])cc2)cc1
QUALITATIVE LABEL: f
//
COMPOUND: CN1/C(=C/c2cc[n+](C)c3ccccc23)C=Cc2ccccc21
QUALITATIVE LABEL: t
//
COMPOUND: COc1cc(C(=O)Oc2c(CN3CCOCC3)cc(Cl)c3cccnc23)cc(OC)c1OC
QUALITATIVE LABEL: f
//
COMPOUND: CCOC(=O)N1CCC(NC(=O)c2ccc3c(c2)N(C)CCS3)CC1
QUALITATIVE LABEL: t
//
COMPOUND: CSc1cccc(NC(=S)N(CCCN2CCCC(C)C2)Cc2cccs2)c1 (stereo not given)
QUALITATIVE LABEL: f
//
COMPOUND: O=C(Cc1c(O)c2ccccc2[nH]c1=O)NC1CCCCCC1
QUALITATIVE LABEL: f
//
COMPOUND: COc1ccc(C(=O)Oc2c(CN3CCOCC3)cc(Cl)c3cccnc23)cc1
QUALITATIVE LABEL: f
//
COMPOUND: Cc1cc(N2CCN(C)CC2)nc2ccc(NC(=S)N3CCOCC3)cc12
QUALITATIVE LABEL: f
//
COMPOUND: CCCC(=O)N1c2ccccc2C(=C2SC(C(=O)OC)=C(C(=O)OC)S2)C(=S)C1(C)C
QUALITATIVE LABEL: f
//
COMPOUND: COc1ccc(C(=O)/C=C2\NCC3c4ccccc4CCN3C2=O)cc1 (stereo not given)
QUALITATIVE LABEL: f
//
COMPOUND: O=C(N1CCOCC1)N(CCN1CCOCC1)Cc1cccc2ccccc12
QUALITATIVE LABEL: f
//
COMPOUND: O=C(Oc1c(CN2CCOCC2)cc(Cl)c2cccnc12)c1ccccc1Cl
QUALITATIVE LABEL: t
//
COMPOUND: Cc1sc2nc3c(C(=O)N4CCCC4)cc(C(=O)c4ccccc4O)cn3c(=O)c2c1C
QUALITATIVE LABEL: f
//
COMPOUND: COCCCNC(=O)Cc1ccccc1OC
QUALITATIVE LABEL: f
//
COMPOUND: COc1cccc(C(=O)Oc2c(CN3CCOCC3)cc(Cl)c3cccnc23)c1
QUALITATIVE LABEL: f
//
COMPOUND: COc1ccc2nc(N3CCC(O)CC3)c(C#N)cc2c1
QUALITATIVE LABEL: t
//
COMPOUND: O=C(O)CN(c1ccc2c(c1)OCCO2)S(=O)(=O)c1ccccc1
QUALITATIVE LABEL: f
//
COMPOUND: Cc1cc(N2CCN(C)CC2)nc2ccc(NC(=S)N3CCCCC3)cc12
QUALITATIVE LABEL: t
//
COMPOUND: COc1ccc(/C=N/NC(=O)Cn2c(Cc3ccc(OC)c(OC)c3)nc3ccccc32)cc1OC
QUALITATIVE LABEL: f
//
COMPOUND: CCOC(=O)C1=C(O)C(=O)N(c2ccc(S(N)(=O)=O)cc2)C1c1ccc(OC)cc1 (stereo not given)
QUALITATIVE LABEL: f
//
COMPOUND: O=C(Oc1c(CN2CCOCC2)cc(Cl)c2cccnc12)c1ccc(F)cc1
QUALITATIVE LABEL: f
//
COMPOUND: CCN(CC)S(=O)(=O)c1cccc(NC(=O)c2cc(=O)[nH]c3ccccc23)c1
QUALITATIVE LABEL: f
//
COMPOUND: CC1CCC/C(=C\Nc2ccc(C(=O)O)cc2)C1=O (stereo not given)
QUALITATIVE LABEL: f
//
COMPOUND: CCSc1nc2ccc(OC)cc2cc1C#N
QUALITATIVE LABEL: f
//
COMPOUND: CCN1/C(=C/c2ccc3ccccc3[n+]2CC)C=Cc2ccccc21
QUALITATIVE LABEL: f
//
COMPOUND: Cn1cc(C=O)c2ccccc21
QUALITATIVE LABEL: f
//
COMPOUND: CCC(C)C(=O)N1c2ccccc2C(=C2SC(C(=O)OC)=C(C(=O)OC)S2)C(=S)C1(C)C (stereo not given)
QUALITATIVE LABEL: f
//
COMPOUND: CC1C(=O)Nc2ccccc2N1C(=O)C1CC1 (stereo not given)
QUALITATIVE LABEL: f
//
COMPOUND: COC(=O)C1=C(C(=O)OC)SC(=C2C(=S)C(C)(C)N(C(=O)CC(C)C)c3ccccc32)S1
QUALITATIVE LABEL: f
//
COMPOUND: CC1CCC/C(=C\Nc2ccc(O)cc2)C1=O (stereo not given)
QUALITATIVE LABEL: t
//
COMPOUND: CCOC(=O)c1ccc(N/C=C2/CCCC(C)C2=O)cc1 (stereo not given)
QUALITATIVE LABEL: f
//
COMPOUND: COc1ccc2nc(N3CCCC3)c(C#N)cc2c1
QUALITATIVE LABEL: f
